Measured target: Ribosyldihydronicotinamide dehydrogenase [quinone] (Homo sapiens, UniProt P16083)
Sequence (P16083 whole entry): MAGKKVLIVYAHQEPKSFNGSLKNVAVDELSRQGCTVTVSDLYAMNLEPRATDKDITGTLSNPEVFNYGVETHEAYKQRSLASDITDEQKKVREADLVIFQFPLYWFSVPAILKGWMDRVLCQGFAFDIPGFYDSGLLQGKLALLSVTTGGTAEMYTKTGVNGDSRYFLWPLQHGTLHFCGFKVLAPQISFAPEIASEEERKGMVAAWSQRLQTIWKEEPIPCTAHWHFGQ
Assay method text: Displacement of (S)-N4-(4-(3-(2-((4-carbamimidoylphenylamino)methyl)-1-methyl-N-(pyridin-2-yl)-1H-benzo[d]imidazole-5-carboxamido)propanamido)butyl)-N1-(15-oxo-19-((3aS,4S,6aR)-2-oxohexahydro-1H-thieno[3,4-d]imidazol-4-yl)-4,7,10-trioxa-14-azanonadecyl)-2-(4-(3-(trifluoromethyl)-3H-diazirin-3-yl)benzamido)succinamide from human recombinant NQO2 after 1 hr by densitometric analysis
pIC50: −log10 of the molar value.
Experimental endpoint: pIC50

A = [H]/N=C(/N)c1ccc(NCc2nc3cc(C(=O)N(CCC(=O)O)c4ccccn4)ccc3n2C)cc1
B = CCOC(=O)CCN(C(=O)c1ccc2c(c1)nc(CNc1ccc(C(=N)N)cc1)n2C)c1ccccn1
Problem: Identify the item whose pIC50 is the smaller number: A or B Answer format: the label of the selected item.
Result: A
(A: 4.96, B: 5.82)

----------
Measured target: Ribosyldihydronicotinamide dehydrogenase [quinone] (Homo sapiens)
Sequence (P16083 whole entry): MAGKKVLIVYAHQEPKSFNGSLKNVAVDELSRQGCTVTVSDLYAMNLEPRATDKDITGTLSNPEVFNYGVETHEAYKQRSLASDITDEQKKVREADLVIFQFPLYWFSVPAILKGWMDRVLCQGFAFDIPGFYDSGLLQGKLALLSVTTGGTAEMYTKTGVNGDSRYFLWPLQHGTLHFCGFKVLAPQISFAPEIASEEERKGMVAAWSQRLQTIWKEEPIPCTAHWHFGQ
Assay method text: Competitive inhibition of human recombinant NQO2-mediated mitomycin C metabolism using NADH as cosubstrate incubated for 5 mins prior to NADH addition measured after 30 mins by Michaelis-Menten plot analysis
Experimental endpoint: IC50 (nM)
I only need the number, in nM, no unit after it.

So, CCOC(=O)CCN(C(=O)c1ccc2c(c1)nc(CNc1ccc(C(=N)N)cc1)n2C)c1ccccn1 [DABIGATRAN ETHYL ESTER] ? Its IC50 was 800

----------
Assay method text: Inhibition of human alpha thrombin using Boc-Val-Pro-Arg-AMC as substrate after 2 hrs by fluorometric analysis
Experimental endpoint: IC50 (nM)

P = CCOC(=O)CCN(C(=O)c1ccc2c(c1)nc(CNc1ccc(C(=N)N)cc1)n2C)c1ccccn1 [DABIGATRAN ETHYL ESTER]
Q = Cn1c(CNc2ccc(C(=N)N)cc2)nc2cc(C(=O)N(CCC(=O)O)c3ccccn3)ccc21 [DABIGATRAN]
Problem: Identify the item whose IC50 is the smaller number: P or Q Answer format: the label of the selected item.
Result: P
(P: 1.2 nM, Q: 13.8 nM)

Each recorded value in this set is attributed to ChEMBL document CHEMBL2216748.
